targetUnderTest: aldose-réductase extraite de cristallins de rats (Rattus norvegicus, UniProt P07943)
parameterMeasured: IC50

Fill in: IC50 of O=C(O)CN1C(=O)c2cccc3cccc(c23)C1=O is ___
1 µM

IC50 lookup needed for COc1ccc(-c2cc(=O)c3c(O)cc(O[C@@H]4O[C@H](CO[C@@H]5O[C@@H](C)[C@H](O)[C@@H](O)[C@H]5O)[C@@H](O)[C@H](O)[C@H]4O)cc3o2)cc1O , thanks.
50 to 100 µM

Pending molecule:
Please look up its IC50: O=C1c2c(O)cc(O)c(C3C(=O)c4c(O)cc(O)cc4OC3c3ccc(O)c(O)c3)c2OC(c2ccc(O)c(O)c2)C1O (stereo not drawn)
0.1 to 0.25 µM
